Test system: PPARg:RXRa DBDmut IVT, anti-RXR (DBD mutation: RXRa K156A/R161A, NR concentration 270 nM, RXRa partner concentration 90 nM)
ASSAY NAME: PBM binding z-score (relative to random genomic background probes); higher = stronger binding; sequences stand for … in GC…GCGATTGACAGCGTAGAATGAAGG
TEST READOUT: PBM binding z-score

Return reported PBM binding z-score; argument: TCTATTAGTTGAAGGGCAAGCGACGAGTCCGTTT
2.2

Return reported PBM binding z-score; argument: TCGAGTAGGTTAGCAATGGGGCATTCAGCTTTCT
2.43

Return reported PBM binding z-score; argument: GTACCAAGGTGAATAGGTCGCTGATGAGTAGGCG
1.89

Return reported PBM binding z-score; argument: ATCGAAAGGTCGAGGTGAGTATCGAGAAAGGGAA
0.319

Return reported PBM binding z-score; argument: CGAACGAGGGCATGAGTTCATAGCAAATGCCGAT
3.09

Return reported PBM binding z-score; argument: CGAACTAGGTCATTGACCGGACAGTGAATAGTAA
8.08

Return reported PBM binding z-score; argument: GTACAAAGGTGAATAGGTCGTTGATGAGTAGGCG
2.92

Return reported PBM binding z-score; argument: CGTCCAAGGTCAGCAGCTCAGTGAAAGCGACGTG
2.5

Return reported PBM binding z-score; argument: ATCTCTAGATAAAGTTCAGTGAAAGATCGATAGA
-0.492

Return reported PBM binding z-score; argument: CGTCCAAGGTCAGCAGGTCTGTGAAAGCGACGTG
2.57

Return reported PBM binding z-score; argument: ATATGTAGGGTAAGGGTCATTCAGGTTGGTTCGC
6.71

Return reported PBM binding z-score; argument: CTCAAAAGGTCGGTTGAGGTGAGTATACGGATAA
-0.129

Return reported PBM binding z-score; argument: ATACCAAGGTGATCGGGAGGTCGTTGATACTAAC
0.345

* * *

Provide the reported PBM binding z-score of each item.
Tested on: RXRa DBDmut IVT, anti-RXR (DBD mutation: RXRa K156A/R161A, NR concentration 90 nM)
ASSAY NAME: PBM binding z-score (relative to random genomic background probes); higher = stronger binding; sequences stand for … in GC…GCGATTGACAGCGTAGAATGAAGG

Return reported PBM binding z-score; argument: CGTCCAAGGTCAATGCTAGGTCAGGGAAAGCATT
3.47

Return reported PBM binding z-score; argument: CCTTACGGGTCAAAGTTATAGCACGGGTGGTACG
1.42

Return reported PBM binding z-score; argument: TCTTGTAGATCAAAGGTTAAAAAAGCCGAAGCCT
0.941

Return reported PBM binding z-score; argument: AGAACGAGGACACGCTGAGTTGATAGCAGAGTAG
0.835

Return reported PBM binding z-score; argument: TCTAGTTGGTCAAAGGTCACACAATCGAAATGCG
1.98

Return reported PBM binding z-score; argument: CGTCCAAGGTCAATGCTAGGTCAGCGAAAGCATT
3.47

Return reported PBM binding z-score; argument: ATCGAAAGCTCGACGAGGTGAGTATACACCGTTT
-0.125

Return reported PBM binding z-score; argument: GGGACTGGGGCAAAGCAGGTTACCATAAGGTTGG
-1.03

Return reported PBM binding z-score; argument: ATCTCTAGGAAAAGTTCAGTGAAAGATCGATAGA
1.03

Return reported PBM binding z-score; argument: TCGAGTAGCTTAGGGGCATTCAGAATGGCGTCGA
0.27

Return reported PBM binding z-score; argument: CCGACTGGCGCATAAGGTTACCATAAGCCAGCCC
-0.135

Return reported PBM binding z-score; argument: CCTAGTTGGTCAAGGTCACAGACGCTATAGGTAC
2.16

Return reported PBM binding z-score; argument: AGAGCGAGGGCAATGAGTTGATAGCACGGGTGGC
1.48

Return reported PBM binding z-score; argument: TCGAGTAGGTTACCAATCGGGCATTCAGCTTTCT
-0.0305

Return reported PBM binding z-score; argument: CCGACTGGGGCAAGGTTACTATAACGCACAGCCA
-0.108

Return reported PBM binding z-score; argument: CCTGCTAGGTAATGGTCAGCTAATCTACAGTATG
-0.0204

Return reported PBM binding z-score; argument: AGAATGTGGTTACCAAAGATCAGGGAAACGCTTG
-0.485

Return reported PBM binding z-score; argument: ATAACGAGGGCAATGAGTTGATAGCACGGGTGGC
1.84

Return reported PBM binding z-score; argument: TAGCCTAGGTCCTGGGCCAGTATACCACGCGAAC
-1.66

Return reported PBM binding z-score; argument: TCTCGGAGGACACGAAAGTCAGAGCTTTCCAGAG
0.647

Return reported PBM binding z-score; argument: CTACCAAGGTGATCAAGGTCGTTGATTACTATTC
1.42

Return reported PBM binding z-score; argument: TGAATGAGGTTAAAAGATCAGGGAACGTTGCAAA
0.605

Return reported PBM binding z-score; argument: CCGACTGGGGCAAAGGTGACCATACTCAGTACGA
-0.244

* * *

Provide the reported PBM binding z-score of each item.
System: THRa:RXRa (NR concentration 90 nM, RXRa partner concentration 90 nM)
ASSAY NAME: PBM binding z-score (relative to random genomic background probes); higher = stronger binding; sequences stand for … in GC…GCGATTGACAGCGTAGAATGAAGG
Answer field: number only, no words.

Return reported PBM binding z-score; argument: ACTATTAGTTGACTTAGGGCCACCGATACGACGC
2.48

Return reported PBM binding z-score; argument: TCATATAGGTAAAGGAGAAAGTCGAACGATATGA
-0.227

Return reported PBM binding z-score; argument: TCTAGTTGGTCACGGAGGTCACATACGACGGGTA
3.68

Return reported PBM binding z-score; argument: CAAACTAGATCAAAGGTCAAAGTCGAGCCAACCA
3.51

Return reported PBM binding z-score; argument: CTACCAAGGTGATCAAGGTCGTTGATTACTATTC
2.71

Return reported PBM binding z-score; argument: TCTGGTAGATCAATAGAGGTTAAGAAAGTGCGCT
2.22

Return reported PBM binding z-score; argument: CGTCCAAGGTCAGTGCTAGGTCAGTGAAAGCATT
3.98

Return reported PBM binding z-score; argument: TATACAGGGTCAAAGGCCAGACTACGAATGTCGA
3.6

Return reported PBM binding z-score; argument: AGAATGAGGTTATACGTAGATCAGGTAAGAAAGT
2.39

* * *

Provide the reported PBM binding z-score of each item.
Tested on: PPARg:RXRa IVT, anti-PPARg (NR concentration 270 nM, RXRa partner concentration 90 nM)
ASSAY NAME: PBM binding z-score (relative to random genomic background probes); higher = stronger binding; sequences stand for … in GC…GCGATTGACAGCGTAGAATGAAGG
Answer field: number only, no words.

Return reported PBM binding z-score; argument: CCTTACGGGTCACTCCAAGTTATAGCATCGGAGT
3.23

Return reported PBM binding z-score; argument: TTACCAAGGTGAAAGCTCGTTGATGCACGCCTTG
2.4

Return reported PBM binding z-score; argument: CAAACTAGGTAACAGAGGTCAAAGTCCGTGCGTA
6.88

Return reported PBM binding z-score; argument: GCTGCTAGGTCAGGTTGGTGAGCTAACGGGTACG
1.93

Return reported PBM binding z-score; argument: ATCTCTAGTTAACCAAGTTCAGTGAATGCCGAAC
0.461

* * *

Test system: RARa:RXR (NR concentration 270 nM, RXRa partner concentration 90 nM)
ASSAY NAME: PBM binding z-score (relative to random genomic background probes); higher = stronger binding; sequences stand for … in GC…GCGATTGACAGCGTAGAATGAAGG
TEST READOUT: PBM binding z-score

Report PBM binding z-score for CCTATTAGTTGACCATAATGGCAACCGAAGCTCG tested on RARa:RXR (NR concentration 270 nM, RXRa partner concentration 90 nM).
0.673

Report PBM binding z-score for GCTTACGGGTCAAGGGTTATAGCATGAATAGAAT tested on RARa:RXR (NR concentration 270 nM, RXRa partner concentration 90 nM).
7.06

Report PBM binding z-score for AAATGTAGGTTACATCCGGGTCATTCAGGCTATG tested on RARa:RXR (NR concentration 270 nM, RXRa partner concentration 90 nM).
3.75

Report PBM binding z-score for AGAACGAGGGCACGCTGAGTTGATCGCAGAGTAG tested on RARa:RXR (NR concentration 270 nM, RXRa partner concentration 90 nM).
0.735

Report PBM binding z-score for GCAGACAGGTGAAACGCAGGTAACTCCGGGTGGC tested on RARa:RXR (NR concentration 270 nM, RXRa partner concentration 90 nM).
0.064

Report PBM binding z-score for CCTTACGGGTCACTCCAGGTTATTGCATCGGAGT tested on RARa:RXR (NR concentration 270 nM, RXRa partner concentration 90 nM).
4.02

Report PBM binding z-score for TGTCAAAGTTCAAAGGTAACGCAAGTATCCACAC tested on RARa:RXR (NR concentration 270 nM, RXRa partner concentration 90 nM).
7.09

Report PBM binding z-score for TGAATGAGGCTAAAGATCAGGGAACGTGGCGTCG tested on RARa:RXR (NR concentration 270 nM, RXRa partner concentration 90 nM).
-0.214

Report PBM binding z-score for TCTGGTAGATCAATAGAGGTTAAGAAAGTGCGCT tested on RARa:RXR (NR concentration 270 nM, RXRa partner concentration 90 nM).
1.75

Report PBM binding z-score for GCGACTGGGGCATCAGAAGGTTACCATAACTTAA tested on RARa:RXR (NR concentration 270 nM, RXRa partner concentration 90 nM).
0.988

Report PBM binding z-score for GGAATGAGGGCAAAGTTGATAGCATCTGTCGACG tested on RARa:RXR (NR concentration 270 nM, RXRa partner concentration 90 nM).
1.95

Hello, the source for this data is the supplement of paper PMC6555819, in case you need it.
